Recorded values, source ChEMBL document CHEMBL3045994.

Tested on: Mus musculus
Assay: Neurotoxicity in Mus musculus albino CF1 (mouse) assessed as motor impairment at 100 mg/kg, ip after 2 hr
Assay type: toxicity, organism-based
Parameters: dose 100 mg/kg, route intraperitoneal
Conditions: in vivo
parameter: Activity

Cc1cc(Oc2ccc(/C=N/Nc3nc4ccccc4s3)cc2)ccc1Cl    Non-toxic
O=C(CSc1nc2ccccc2s1)N/N=C/c1ccc(Oc2ccc([N+](=O)[O-])cc2)cc1    Non-toxic
O=C(CSc1nc2ccccc2s1)N/N=C1\C(=O)Nc2ccccc21    Non-toxic
O=C(CSc1nc2ccccc2s1)N/N=C/c1ccc(Oc2ccc(Br)cc2)cc1    Non-toxic

q: Please report Activity for the following compound: `O=[N+]([O-])c1ccc(Oc2ccc(/C=N/Nc3nc4ccccc4s3)cc2)cc1`
a: Non-toxic

q: Consider the compound `C(=N\Nc1nc2ccccc2s1)/c1ccc(Oc2ccccc2)cc1` . State its measured Activity.
a: Non-toxic

###

Test system: Mus musculus
Assay: Anticonvulsant activity in Mus musculus albino CF1 (mouse) assessed as protection against 6 Hz psychomotor seizure at 100 mg/kg, ip after 0.25 hr
Type: functional
Conditions: route intraperitoneal
Measured Activity by item
State just the number; it will be interpreted in %.

Past entries and their recorded results:
O=C(CSc1nc2ccccc2s1)N/N=C/c1ccc(Oc2ccc(Cl)cc2)cc1    0
Clc1ccc(Oc2ccc(/C=N/Nc3nc4ccccc4s3)cc2)cc1    0
Cc1ccc(Oc2ccc(/C=N/Nc3nc4ccccc4s3)cc2)cc1    25
O=C(CSc1nc2ccccc2s1)N/N=C/c1ccc(Oc2ccccc2)cc1    50
Cc1cc(Oc2ccc(/C=N/Nc3nc4ccccc4s3)cc2)ccc1Cl    25

q: Determine from records and report Activity for `C(=N\Nc1nc2ccccc2s1)/c1ccc(Oc2ccc3c(c2)OCO3)cc1`
a: 0

q: State its Activity for this compound: `C(=N\Nc1nc2ccccc2s1)/c1ccc(Oc2ccc3ccccc3c2)cc1`
a: 25

q: Check the records and state Activity for `O=C(CSc1nc2ccccc2s1)N/N=C/c1ccc(Oc2ccc(Br)cc2)cc1`
a: 0

q: Give the measured Activity for `O=C(CSc1nc2ccccc2s1)N/N=C/c1ccc(Oc2ccc(F)cc2)cc1`
a: 50

q: Identify measured Activity associated with `O=C(CSc1nc2ccccc2s1)N/N=C/c1ccc(Oc2ccc([N+](=O)[O-])cc2)cc1`
a: 0

q: Given `O=[N+]([O-])c1ccc(Oc2ccc(/C=N/Nc3nc4ccccc4s3)cc2)cc1` , respond with its Activity.
a: 50

q: Kindly indicate its recorded Activity. Item: `O=C(CSc1nc2ccccc2s1)N/N=C/c1ccc(Oc2ccc3ccccc3c2)cc1`
a: 0

q: Note down Activity recorded for `O=C(CSc1nc2ccccc2s1)N/N=C1\C(=O)Nc2ccccc21`
a: 0

q: Please supply the value of reported Activity for the item `Cc1cc(Oc2ccc(/C=N/NC(=O)CSc3nc4ccccc4s3)cc2)ccc1Cl`
a: 0

q: Answer with the recorded Activity of `Brc1ccc(Oc2ccc(/C=N/Nc3nc4ccccc4s3)cc2)cc1` only.
a: 0

q: Tell me Activity reported for `O=C1Nc2ccccc2/C1=N/Nc1nc2ccccc2s1`
a: 0

q: State, in one line, measured Activity of `C(=N\Nc1nc2ccccc2s1)/c1ccc(Oc2ccccc2)cc1`
a: 0

###

Parameter: logP at 24 h. Scope: all listed entries.
Assay: Octanol-phosphate buffer partition coefficient, log P of the compound after 24 hr
Format: physicochemical
Enter a number only.

Here are 5 compounds together with their reported answers.
O=C(CSc1nc2ccccc2s1)N/N=C/c1ccc(Oc2ccc(F)cc2)cc1    5.5
O=C(CSc1nc2ccccc2s1)N/N=C/c1ccc(Oc2ccc3ccccc3c2)cc1    5.9
Fc1ccc(Oc2ccc(/C=N/Nc3nc4ccccc4s3)cc2)cc1    5
O=[N+]([O-])c1ccc(Oc2ccc(/C=N/Nc3nc4ccccc4s3)cc2)cc1    5.1
C(=N\Nc1nc2ccccc2s1)/c1ccc(Oc2ccc3ccccc3c2)cc1    5.6

q: Return logP at 24 h for the following compound: `O=C(CSc1nc2ccccc2s1)N/N=C/c1ccc(Oc2ccc3c(c2)OCO3)cc1`
a: 5.5

q: Consider the compound `O=C(CSc1nc2ccccc2s1)N/N=C1\C(=O)Nc2ccccc21` . State its measured logP at 24 h.
a: 3.2

q: For `Cc1cc(Oc2ccc(/C=N/NC(=O)CSc3nc4ccccc4s3)cc2)ccc1Cl` , write its logP at 24 h.
a: 5.7

q: Please give the documented logP at 24 h of `Cc1ccc(Oc2ccc(/C=N/NC(=O)CSc3nc4ccccc4s3)cc2)cc1`
a: 5.7

q: // Input: `Cc1cc(Oc2ccc(/C=N/Nc3nc4ccccc4s3)cc2)ccc1Cl` . Output its logP at 24 h only.
a: 5.5
